system: NCI-H322M lung; test: NCI-60 one-dose screen, 48 h (100 = growth as untreated, 0 = no growth, -100 = all killed); settings: 10 µM unless noted
The panel holds about 83,000 compounds, 20% with a hit somewhere; the sample as a whole holds those more often. Active and inactive are the calls of the source. How the source made its calls: active means growth percent below 10; inactive means the rest.
Answer each item with its documented growth.

molecule	target or system	growth
C[C@]12CCC(=O)C=C1CCC1C2[C@@H](O)C[C@@]2(C)C1CC[C@]2(O)C(=O)COC(=O)CCC(=O)O (stereo not given in full)	NCI-H322M lung	95.4% (inactive)
CC(=O)Nc1ccc(C(=O)COc2ccc(/C=C3\CCc4ccccc4C3=O)cc2)cc1	NCI-H322M lung	108% (inactive)
Cc1[nH]ccc2cc3nc4ccccc4c3cc12	NCI-H322M lung	19.2% (inactive)
O=C(/C=C/c1c(-c2ccccc2)[nH]c2ccccc12)S(=O)(=O)c1ccccc1	NCI-H322M lung	93% (inactive)
O=C(COc1ccc(/C=C2\Oc3ccc4ccccc4c3C2=O)cc1)c1ccc(Cl)cc1	NCI-H322M lung	102% (inactive)

Hi! Can you tell me growth for each of these molecules?
1. CNc1nc(NC2CCCC2)nc(Sc2ccc(OC)cc2)n1
2. COc1c(Br)cc(C(c2cc(Br)c(OC)c(Br)c2)c2ccccc2C(=O)O)cc1Br
3. CCCCCCCSc1ncnc2[nH]ncc12
4. NS(=O)(=O)c1ccc(-n2ncc3c(N/N=C/c4ccccc4)ncnc32)cc1
5. CCOc1cc(/C=C/C(=O)CC(=O)/C=C/c2ccc(OC(=O)CNc3nc4ccc(OC)cc4s3)c(OCC)c2)ccc1OC(=O)CNc1nc2ccc(OC)cc2s1

68.5% [100 µM] (inactive)
102% (inactive)
93.9% (inactive)
94.6% (inactive)
88.6% (inactive)

Hi! Can you tell me growth for each of these molecules?
1. N#CC1c2ccccc2C=CN1C(=O)N(c1ccccc1)c1ccccc1 (stereo not given)
2. O=C(/C=C(\Nc1ccccc1)c1ccccc1)c1cn(-c2ccc([N+](=O)[O-])cc2)nn1
3. O=C1C(=O)/C(=C/c2ccccc2)CCCCCC/C1=C/c1ccccc1
4. Cc1n(Cc2ccc3ccccc3c2)cc[n+]1Cc1ccc2ccccc2c1
5. C(=C1c2ccccc2-c2ccccc21)c1ccncc1
6. C#C[C@]1(O)CCC2C3CCc4cc(O)ccc4C3CC[C@@]21C (stereo not given in full)
7. O=C(NN1C(=O)c2cc(C(=O)O)c(C(=O)O)cc2C1=O)c1ccncc1
8. O=C1/C=C/[C@@H](O)[C@@H]2C[C@@H](O)C[C@H]2/C=C/CCC[C@H](CO)O1

["103% (inactive)", "82.8% (inactive)", "94.5% (inactive)", "48.9% (inactive)", "80.1% (inactive)", "81.4% (inactive)", "102% (inactive)", "41.7% (inactive)"]

Hi! Can you tell me growth for each of these molecules?
1. Cc1cc(=O)[nH]c(/C(=N/Nc2ccccc2)C(=O)c2ccc(Cl)cc2)n1
2. COc1ccc(-c2cc(-c3cccnc3)nc(S(=O)(=O)CC(=O)Nc3ccc(C)cc3)c2C#N)cc1OC

1. 107% (inactive)
2. 91.7% (inactive)
